Biological target: acetylcholine receptor
Test: SPR, peptide at 10 uM, AchR immobilized
So basically: Binding affinity at 20 RU or higher? That is MET. Lower than 20 RU? That is NOT MET.

>  <BINDER>
KKAEER [6mer-1-679]

>  <CATEGORY LABEL>
MET

$$$$
>  <BINDER>
KRFNHK [6mer-1-698]

>  <CATEGORY LABEL>
MET

$$$$
>  <BINDER>
KRMAAK [6mer-1-678]

>  <CATEGORY LABEL>
MET

$$$$
>  <BINDER>
RKKMWK [6mer-1-700]

>  <CATEGORY LABEL>
NOT MET

$$$$
>  <BINDER>
RKDEVR [6mer-1-688]

>  <CATEGORY LABEL>
MET

$$$$
>  <BINDER>
KRCPWR [6mer-1-676]

>  <CATEGORY LABEL>
NOT MET

$$$$
>  <BINDER>
RRATHR [6mer-1-711]

>  <CATEGORY LABEL>
NOT MET

$$$$
>  <BINDER>
RRTTVR [6mer-1-699]

>  <CATEGORY LABEL>
MET

$$$$
>  <BINDER>
KKKDIR [6mer-1-682]

>  <CATEGORY LABEL>
MET

$$$$
>  <BINDER>
RRAMPK [6mer-1-673]

>  <CATEGORY LABEL>
NOT MET

$$$$
>  <BINDER>
RKNTHK [6mer-1-692]

>  <CATEGORY LABEL>
MET

$$$$
>  <BINDER>
KRADVK [6mer-1-695]

>  <CATEGORY LABEL>
NOT MET

$$$$
>  <BINDER>
KRDWVK [6mer-1-702]

>  <CATEGORY LABEL>
MET

$$$$
